Examples of compounds with documented speed of sound follow.
condition-summary: 331.66 K; 101.33 kPa; Liquid; Pulse-echo method
Entry rule: numbers only, all in m/s.

CC(C)C(=O)[O-].C[NH2+]CCO [2-hydroxy-N-methylethanaminium isobutyrate] : 1516.2
C[NH2+]CCO.O=C[O-] [2-hydroxy-N-methylethanaminium formate] : 1750.3
CCCCC(=O)[O-].C[NH2+]CCO [2-hydroxy-N-methylethanaminium pentanoate] : 1445.5
CCC(=O)[O-].C[NH2+]CCO [2-hydroxy-N-methylethanaminium propionate] : 1590.3

Then this compound:
INPUT: What measured speed of sound goes with CCCC(=O)[O-].C[NH2+]CCO [N-methyl-2-hydroxyethylammonium butanoate] ?
OUTPUT: 1509.6

====

condition-summary: 282.9 K; 101.33 kPa; Liquid; Pulse-echo method
readout-label: speed of sound (m/s)
Answer in m/s, number only, no unit symbol.

Some solved entries appear below for comparison.
C[NH2+]CCO.O=C[O-] [2-hydroxy-N-methylethanaminium formate] : 1845.3
CCC(=O)[O-].C[NH2+]CCO [2-hydroxy-N-methylethanaminium propionate] : 1736.6

INPUT: Would you mind telling me what speed of sound value was observed for CCCC(=O)[O-].C[NH2+]CCO [N-methyl-2-hydroxyethylammonium butanoate] ?
OUTPUT: 1665.7

INPUT: Cool, now CC(C)C(=O)[O-].C[NH2+]CCO [2-hydroxy-N-methylethanaminium isobutyrate]
OUTPUT: 1655.4

INPUT: Again, but for CCCCC(=O)[O-].C[NH2+]CCO [2-hydroxy-N-methylethanaminium pentanoate]
OUTPUT: 1599.2

====

The compounds listed here are annotated with their speed of sound.
condition-summary: 334.91 K; 101.33 kPa; Liquid; Pulse-echo method
Numbers after ± are expanded uncertainties.

Field: example entries. Status: answers known.
CC(C)C(=O)[O-].C[NH2+]CCO [2-hydroxy-N-methylethanaminium isobutyrate] : 1506.9 ± 2.1 m/s
CCCCC(=O)[O-].C[NH2+]CCO [2-hydroxy-N-methylethanaminium pentanoate] : 1435.5 ± 2.1 m/s
CCC(=O)[O-].C[NH2+]CCO [2-hydroxy-N-methylethanaminium propionate] : 1580.5 ± 2.1 m/s
CCCC(=O)[O-].C[NH2+]CCO [N-methyl-2-hydroxyethylammonium butanoate] : 1499.4 ± 2.1 m/s

Now for the compound whose speed of sound we want.
INPUT: Entry C[NH2+]CCO.O=C[O-] [2-hydroxy-N-methylethanaminium formate] has what speed of sound?
OUTPUT: 1744.3 ± 2.2 m/s

====

condition-summary: 298.15 K; 101.33 kPa; Liquid; Pulse-echo method
readout-label: speed of sound (m/s)
Field: numeric (m/s). Do not append units.

Examples with answers:
CCC(=O)[O-].C[NH2+]CCO [2-hydroxy-N-methylethanaminium propionate] : 1690
CCCCC(=O)[O-].C[NH2+]CCO [2-hydroxy-N-methylethanaminium pentanoate] : 1548.8
CCCC(=O)[O-].C[NH2+]CCO [N-methyl-2-hydroxyethylammonium butanoate] : 1614.5
CC(C)C(=O)[O-].C[NH2+]CCO [2-hydroxy-N-methylethanaminium isobutyrate] : 1611.3

// moving on: another record for speed of sound
INPUT: // speed of sound lookup, key: C[NH2+]CCO.O=C[O-] [2-hydroxy-N-methylethanaminium formate]
OUTPUT: 1815.3

====

condition-summary: 294.15 K; 101.33 kPa; Liquid; Vibrating tube method
Each item that follows carries a reported mass density.
API: value field is a number in kg/m3; no unit string.

CCC(=O)[O-].C[NH2+]CCO [2-hydroxy-N-methylethanaminium propionate] : 1073.84
C[NH2+]CCO.O=C[O-] [2-hydroxy-N-methylethanaminium formate] : 1130.48
CC(=O)[O-].C[NH2+]CCO [N-methyl-2-hydroxyethylammonium acetate] : 1103.17
CCCC(=O)[O-].C[NH2+]CCO [N-methyl-2-hydroxyethylammonium butanoate] : 1041.96

INPUT: Endpoint output: mass density of CCCCC(=O)[O-].C[NH2+]CCO [2-hydroxy-N-methylethanaminium pentanoate] . Value?
OUTPUT: 1018.93

INPUT: Now try CC(C)C(=O)[O-].C[NH2+]CCO [2-hydroxy-N-methylethanaminium isobutyrate] .
OUTPUT: 1045.9

Source listed as the NIST ThermoML archive (doi:10.1021/je900550v).
